clearance values, listed per item
- TEST PROTOCOL: Compound was evaluated in vivo for plasma clearance in dog after intravenous dose at 2 mg/Kg
- Type: ADME, organism-based, Canis lupus familiaris
- CONDITION SUMMARY: read-out: Clp
Dear colleague, please return just the value in mL/min/kg, with no unit written.

INSERT INTO results (chemical_string, value_kind, units_text, recorded_value) VALUES
  ('COc1ccc(-c2ccoc2)cc1CN[C@H]1CCCN[C@H]1c1ccccc1', 'clearance', 'mL/min/kg', 45),
  ('COc1ccc(S(C)(=O)=O)cc1CN[C@H]1CCCN[C@H]1c1ccccc1', 'clearance', 'mL/min/kg', 23);

Query: Find the recorded clearance belonging to COc1ccc(-n2cnnn2)cc1CN[C@H]1CCCN[C@H]1c1ccccc1 and report it.
Reply: 24

Query: Dear colleague, I am looking for the recorded clearance of the following compound: COc1ccccc1CN[C@H]1CCCN[C@H]1c1ccccc1
Reply: 94
